B1: BTBD1 (parent)
chain: IVGFGLYGSIHGPTDYQVNIQIIE

variants of: B1; assay: protein stability index of a GFP-peptide fusion (GPS, HEK-293T) (PSI 1-6); higher = more stable; conditions: c terminus: a fixed tail appended;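 further: lentivirally expressed fusions sorted by FACS into six bins by GFP to DsRed ratio, PSI derived from sequencing read proportions per bin multiplied by bin number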
parameter_measured: protein stability index
Form field (numeric): enter value without unit.

Consider the variant shown here: IVGFGLYGSIHGPTCYQVNIQIIE [D15C] What is its recorded protein stability index? 2.97

# lookup: protein stability index of IVGFGLYYSIHGPTDYQVNIQIIE [G8Y] 2.35

Name the recorded protein stability index for IVGFGLYGSIHGPTDYQVNIDIIE [Q21D] . 3.52

Reported protein stability index for IVGFGLYGSIHGPTDYQVNIQIIV [E24V] : what is it? 2.95

Which protein stability index value is on record for IVGFGLYGSIHGPTDYQVNIQIIH [E24H] ? 2.33

Given the variant IVGFGLYGSIHGPTDYQRNIQIIE [V18R] , what is its reported protein stability index? 2.39

Need protein stability index of IVGFGLYGSIHGPTDYQVNIQFIE [I22F] , thanks. 2.84

Consider the variant IVGFGLYGVIHGPTDYQVNIQIIE [S9V] and give its measured protein stability index. 3.54

I would be grateful if you could share the reported protein stability index for IVGFGLYGSIHDPTDYQVNIQIIE [G12D] . 3.52

Query (variant): IVGFGLYGSIHGPTDYQVNHQIIE [I20H] ; field requested: protein stability index 2.21

I have this variant here, IVGFGLYGSPHGPTDYQVNIQIIE [I10P] , and I need its recorded protein stability index. 2.78

I am curious: what protein stability index value has been reported for IVGFGLPGSIHGPTDYQVNIQIIE [Y7P] ? 3.54

What measured protein stability index goes with IVKFGLYGSIHGPTDYQVNIQIIE [G3K] ? 3.18

Which protein stability index value belongs to IRGFGLYGSIHGPTDYQVNIQIIE [V2R] ? 2.96

// returns reported protein stability index for input GVGFGLYGSIHGPTDYQVNIQIIE [I1G] 3.43

Item IVGFGLYGSIHGPTDYQVNIQCIE [I22C] has what recorded protein stability index? 4.32

Field request: protein stability index | item: QVGFGLYGSIHGPTDYQVNIQIIE [I1Q] 3.04

State the recorded protein stability index for this entry: IVGFGLCGSIHGPTDYQVNIQIIE [Y7C] 2.57

Look at this variant and give its reported protein stability index. IVGFGLKGSIHGPTDYQVNIQIIE [Y7K] 3.4

Which protein stability index reading was recorded for the variant IVGFGLYGSIHGITDYQVNIQIIE [P13I] ? 4.51

I am curious: what protein stability index value has been reported for IVGFGLYGSIHGPTDYQVNIPIIE [Q21P] ? 2.37

// returns reported protein stability index for input IVGFGLYGSIHGPWDYQVNIQIIE [T14W] 2.9

Endpoint output: protein stability index of IVGFGAYGSIHGPTDYQVNIQIIE [L6A] . Value? 3.31

Need protein stability index of IVGFGLYGSIHGPTDYQVNMQIIE [I20M] , thanks. 4.04

Which value of protein stability index has been reported for IVGFGLYGSIHEPTDYQVNIQIIE [G12E] in the records? 3.19

What does the data say about its protein stability index? Entry: IVGFGLYGNIHGPTDYQVNIQIIE [S9N] 3.18

Any idea what its protein stability index is? The variant is IVGFGLYGSIHGPTNYQVNIQIIE [D15N] 2.36

Suppose we examine the variant IVEFGLYGSIHGPTDYQVNIQIIE [G3E] ; what protein stability index value has been reported? 2.82

Find the recorded protein stability index belonging to IVGFGLYPSIHGPTDYQVNIQIIE [G8P] and report it. 4.75

Need protein stability index, item IVGFYLYGSIHGPTDYQVNIQIIE [G5Y] 3.17

So what does the record say about protein stability index for IVFFGLYGSIHGPTDYQVNIQIIE [G3F] ? 3.55

Reported protein stability index for IVGFGLYGSIHGPTDYPVNIQIIE [Q17P] : what is it? 1.98

Give the measured protein stability index of IDGFGLYGSIHGPTDYQVNIQIIE [V2D] . 2.79

Fill in: protein stability index of IVGFGLYGSIHGPMDYQVNIQIIE [T14M] is ___ 3.23

Given the entry IVGFGLYGSIHWPTDYQVNIQIIE [G12W] , report its measured protein stability index. 2.56

Please look up its protein stability index: IVGFGLYGSIHGPTDYQVNEQIIE [I20E] 1.46

# query: protein stability index of entry IVGFGLYGSIHKPTDYQVNIQIIE [G12K] 4.19

What measured protein stability index goes with IVGFGLYGHIHGPTDYQVNIQIIE [S9H] ? 1.88

# protein stability index lookup, item IVGFGLYGSIHGPTDYQVNIQILE [I23L] 2.96

Item IVGFGLYGSIHLPTDYQVNIQIIE [G12L] has what recorded protein stability index? 3.53

Consider the variant IVGFGLYGSIHGPTDNQVNIQIIE [Y16N] and give its measured protein stability index. 2.41

Give its protein stability index value. Item: NVGFGLYGSIHGPTDYQVNIQIIE [I1N] 2.16

Name the recorded protein stability index for IVGFGLYGSIHGPTEYQVNIQIIE [D15E] . 3.19

So what's the measured protein stability index for this one? IVGWGLYGSIHGPTDYQVNIQIIE [F4W] 1.8

Data request, read-out protein stability index, for IVGFGLYGSIHGPTDYSVNIQIIE [Q17S] 2.31

Using the record for IVGFGLYGSIHGPTDMQVNIQIIE [Y16M] , report its protein stability index. 2.38

Entry IWGFGLYGSIHGPTDYQVNIQIIE [V2W] : reported protein stability index = ? 3.31

Consider the variant IVGFGLYGSIHGPTDYAVNIQIIE [Q17A] and give its measured protein stability index. 3.68

Data request, read-out protein stability index, for IVGFGLRGSIHGPTDYQVNIQIIE [Y7R] 4.6

What protein stability index value was documented for this variant, IVGFGLYGSIHGPTDYQVNIQAIE [I22A] ? 2.07

Name the recorded protein stability index for IVGFGLYGSIHGPTDYFVNIQIIE [Q17F] . 2.95

Returns the measured protein stability index for the input variant. Input: IVGFGQYGSIHGPTDYQVNIQIIE [L6Q] 3.25

Field request: protein stability index | item: IVGFGMYGSIHGPTDYQVNIQIIE [L6M] 1.94

Fill in the blank: the reported protein stability index of IVGFGLYGSIHGPTDYQVNRQIIE [I20R] is ____. 2.12

Consider the variant IVSFGLYGSIHGPTDYQVNIQIIE [G3S] and give its measured protein stability index. 1.66

Data request, read-out protein stability index, for IVGFGLYGSIHGPTDYQVNIQIIS [E24S] 2.78

Could you share which protein stability index value was measured for IVGFGLYGSIHGPTDYQVNIQEIE [I22E] ? 2

Given IVGFRLYGSIHGPTDYQVNIQIIE [G5R] , state its recorded protein stability index. 2.57

What value of measured protein stability index is listed for IVGFGLYRSIHGPTDYQVNIQIIE [G8R] ? 1.45

Sample IVGFGLYGSIHGPTDYQVNIAIIE [Q21A] — what was its protein stability index? 3.82

Entry IVGFGLYGSIHGPTDYQVNIQKIE [I22K] has what protein stability index? 2.4

Look up protein stability index for this variant: IVGFGLYGAIHGPTDYQVNIQIIE [S9A] 1.82

// returns reported protein stability index for input IVGFGLYGSIHGPTDQQVNIQIIE [Y16Q] 1.69

Consider the variant shown here: IVGFGLWGSIHGPTDYQVNIQIIE [Y7W] What is its recorded protein stability index? 3.5

Query: protein stability index; subject: IVGFGLYGSIHGPTLYQVNIQIIE [D15L] 3.05

I am curious: what protein stability index value has been reported for IVGFGLYGSIHGPTDYQVNIQIIK [E24K] ? 2.36

Would you kindly share the measured protein stability index for IVGTGLYGSIHGPTDYQVNIQIIE [F4T] ? 2.1

If you can, please state the reported protein stability index value of IVGFGLYGSIHGPTDYQVNIQNIE [I22N] . 1.24

Which protein stability index value is on record for IVGFHLYGSIHGPTDYQVNIQIIE [G5H] ? 2.33

What value of measured protein stability index is listed for IVGFGLYGSIHGPTDYQVNIQIII [E24I] ? 2.08

I have this variant here, IVGFGLYGSIHGGTDYQVNIQIIE [P13G] , and I need its recorded protein stability index. 1.57

Bench note: what protein stability index did IVGFGLYGSIHGPTDYQTNIQIIE [V18T] show? 4

Which protein stability index value is on record for IVGFGLYGSQHGPTDYQVNIQIIE [I10Q] ? 3.45

# get_value(readout='protein stability index', item= IVGFGLYGSIHGPTDYQKNIQIIE [V18K] ) 2.42

I would be grateful if you could share the reported protein stability index for IVGFGLYGSIHGPTDYQVNIQIIQ [E24Q] . 2.62

Entry IVNFGLYGSIHGPTDYQVNIQIIE [G3N] : reported protein stability index = ? 3.38

Can you share its protein stability index? I mean this variant: IVGFGLYGSIHGPTDYQVNPQIIE [I20P] 2.21

Field request: protein stability index | item: IVGIGLYGSIHGPTDYQVNIQIIE [F4I] 3.05

Return reported protein stability index; argument: IVGFGLGGSIHGPTDYQVNIQIIE [Y7G] 2.06

What value of protein stability index has been reported for the following variant? IVGFGLYGSIHGPTDYQVNIQIHE [I23H] 4.05

So what does the record say about protein stability index for FVGFGLYGSIHGPTDYQVNIQIIE [I1F] ? 3.14

# protein stability index lookup, item IMGFGLYGSIHGPTDYQVNIQIIE [V2M] 2.49

# input variant: IVGFGLYGSIHGPTDYQVNCQIIE [I20C] ; wanted: its protein stability index 2.49

protein stability index for IVGFGLYGSIHGPTDYQVNIQIPE [I23P] ? 2.21

What does the data say about its protein stability index? Entry: IVGHGLYGSIHGPTDYQVNIQIIE [F4H] 2.54

GET /values?readout=protein stability index&item= IVGFGRYGSIHGPTDYQVNIQIIE [L6R] 2.67

Form field: reported protein stability index of IVGFGLYGSIHQPTDYQVNIQIIE [G12Q] 3.29

Would you kindly share the measured protein stability index for IVGFSLYGSIHGPTDYQVNIQIIE [G5S] ? 1.62

Return reported protein stability index; argument: IVGFGLYGSIHGPTDYQVNIRIIE [Q21R] 2.53

Value lookup for protein stability index; key = IVGFGHYGSIHGPTDYQVNIQIIE [L6H] 3.36

Need protein stability index, item IVGFGWYGSIHGPTDYQVNIQIIE [L6W] 1.76
